# CHOL, % difference from control listing for each entry below
# Test system: Normolipemic rats
# assay-details: hypolipemic activity in normolipemic rats (serum lipids, liver weight)
# Format: in vivo, rat
# settings: 0.370 mM/kg po × 4 days
measure: CHOL, % difference from control

- compound: "COc1cc2c(c(OC)c1OC)C[C@H](N1CCC(NC(=O)c3ccccc3)CC1)[C@@H]2O (relative stereo)"
  measure: "CHOL, % difference from control"
  recorded-value: "-30.7%"
- compound: "COc1cc2c(cc1OC)[C@H](O)[C@@H](N1CCC(n3c(=O)[nH]c4cc(Cl)ccc43)CC1)C2 (relative stereo)"
  measure: "CHOL, % difference from control"
  recorded-value: "~ 0%"
- compound: "COc1cc2c(cc1OC)[C@@H](O)[C@@H](N1CCC(NC(=O)c3ccccc3)CC1)C2 (relative stereo)"
  measure: "CHOL, % difference from control"
  recorded-value: "-52.7%"
- compound: "COc1cc2c(cc1OC)C(=O)C(N1CCC(NC(=O)c3ccccc3)CC1)C2 (stereo not shown)"
  measure: "CHOL, % difference from control"
  recorded-value: "~ 0%"
